# System: Human immunodeficiency virus 1
# Assay Procedure: Antiviral activity against wild type HIV1 NL4-3
# Type: functional, organism-based
# Measurement Conditions: Human immunodeficiency virus 1, NL4-3
Please use Y for EC50 under 300 nM and N for everything else, ties included.

# Smi, Classification
data = [
    ("CC(C)CN(C[C@@H](O)[C@H](Cc1ccccc1)NC(=O)[C@@H]1COCCN1C)S(=O)(=O)c1ccc(O)cc1", "Y"),
    ("COc1ccc(S(=O)(=O)N(CC(C)C)C[C@@H](O)[C@H](Cc2ccccc2)NC(=O)[C@@H]2COCCN2C)cc1", "N"),
    ("COc1ccc(S(=O)(=O)N(CC(C)C)C[C@@H](O)[C@H](Cc2ccccc2)NC(=O)[C@@H]2COCCN2)cc1", "N"),
]

Qu. Is 300 nM strictly greater than the compound's reported EC50? compound: CC(C)CN(C[C@@H](O)[C@H](Cc1ccccc1)NC(=O)O[C@H]1CO[C@H]2OCC[C@H]21)S(=O)(=O)c1ccc(N)cc1
Ans. Y

Qu. Entry CC(C)CN(C[C@@H](O)[C@H](Cc1ccccc1)NC(=O)[C@@H]1COCCN1)S(=O)(=O)c1ccc(O)cc1 please
Ans. Y

Reference source: ChEMBL document CHEMBL5154794
